Provenance of the data: paper PMC5706701

Biological target: Human IP6K1 (Homo sapiens, UniProt Q92551)
Construct: GST (N, cleaved yes); made in house; host or cells: C43 E. coli, pGEX-6P-2
Sequence (Q92551 whole entry): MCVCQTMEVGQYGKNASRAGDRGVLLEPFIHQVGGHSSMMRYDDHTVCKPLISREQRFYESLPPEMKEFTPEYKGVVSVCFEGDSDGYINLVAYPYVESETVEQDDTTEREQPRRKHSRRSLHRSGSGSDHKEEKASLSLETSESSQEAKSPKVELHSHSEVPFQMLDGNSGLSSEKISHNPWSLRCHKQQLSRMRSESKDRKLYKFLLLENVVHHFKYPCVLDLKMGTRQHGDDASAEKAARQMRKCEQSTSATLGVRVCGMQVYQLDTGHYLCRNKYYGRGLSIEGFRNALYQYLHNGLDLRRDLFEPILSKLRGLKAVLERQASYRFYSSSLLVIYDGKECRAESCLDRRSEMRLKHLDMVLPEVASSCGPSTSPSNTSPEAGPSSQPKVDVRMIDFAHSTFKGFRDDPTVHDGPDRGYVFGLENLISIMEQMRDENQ
Experiment: IP6K1 high-throughput screen of the Sigma LOPAC (ADP-Glo Max, single point);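 also: final compound concentration 10µM in 5% DMSO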
Type: biochemical
Conditions: LOPAC single-point screen; Z-score from raw signal with plate average and StDev
Overview of recorded Z-score for various compounds
Just the number.

Please review the following examples before continuing.
> print(dat)
                                   compound  experimentalendpoint  recordedmeasurement
1               OC[C@H]1NC[C@@H](O)[C@@H]1O               Z-score             -0.09729
2  Clc1cnc(Oc2ccc(Oc3ncc(Cl)cc3Cl)cc2)c(Cl)c1               Z-score              -0.2335
3  CC(=N)NCCCC[C@H](N)C(=O)O.Cl [L-N6-(1-Iminoethyl)lysine hydrochloride]               Z-score              -0.3765
4  N#Cc1cc2nc([O-])c([O-])nc2cc1[N+](=O)[O-].[Na+].[Na+] [CNQX disodium]               Z-score              -0.4035
5  CCN1C[C@]2(C)CC[C@H](O)[C@]34C1[C@@H](C[C@H]23)[C@@]1(O)C[C@H](OC)[C@H]2C[C@@H]4[C@@H]1[C@H]2O               Z-score              -0.2269
6                           N[C@@H]1CON=C1O               Z-score              -0.3523

(Q) Need Z-score of Cl.O=C(Cc1ccc(Cl)c(Cl)c1)N1CCCCC1CN1CCCC1 (stereo not shown) [BRL 52537 hydrochloride] , thanks.
(A) -0.1876
